- assayed-target: human recombinant HDAC6 (Homo sapiens, UniProt Q9UBN7)
- Sequence (Q9UBN7 whole entry): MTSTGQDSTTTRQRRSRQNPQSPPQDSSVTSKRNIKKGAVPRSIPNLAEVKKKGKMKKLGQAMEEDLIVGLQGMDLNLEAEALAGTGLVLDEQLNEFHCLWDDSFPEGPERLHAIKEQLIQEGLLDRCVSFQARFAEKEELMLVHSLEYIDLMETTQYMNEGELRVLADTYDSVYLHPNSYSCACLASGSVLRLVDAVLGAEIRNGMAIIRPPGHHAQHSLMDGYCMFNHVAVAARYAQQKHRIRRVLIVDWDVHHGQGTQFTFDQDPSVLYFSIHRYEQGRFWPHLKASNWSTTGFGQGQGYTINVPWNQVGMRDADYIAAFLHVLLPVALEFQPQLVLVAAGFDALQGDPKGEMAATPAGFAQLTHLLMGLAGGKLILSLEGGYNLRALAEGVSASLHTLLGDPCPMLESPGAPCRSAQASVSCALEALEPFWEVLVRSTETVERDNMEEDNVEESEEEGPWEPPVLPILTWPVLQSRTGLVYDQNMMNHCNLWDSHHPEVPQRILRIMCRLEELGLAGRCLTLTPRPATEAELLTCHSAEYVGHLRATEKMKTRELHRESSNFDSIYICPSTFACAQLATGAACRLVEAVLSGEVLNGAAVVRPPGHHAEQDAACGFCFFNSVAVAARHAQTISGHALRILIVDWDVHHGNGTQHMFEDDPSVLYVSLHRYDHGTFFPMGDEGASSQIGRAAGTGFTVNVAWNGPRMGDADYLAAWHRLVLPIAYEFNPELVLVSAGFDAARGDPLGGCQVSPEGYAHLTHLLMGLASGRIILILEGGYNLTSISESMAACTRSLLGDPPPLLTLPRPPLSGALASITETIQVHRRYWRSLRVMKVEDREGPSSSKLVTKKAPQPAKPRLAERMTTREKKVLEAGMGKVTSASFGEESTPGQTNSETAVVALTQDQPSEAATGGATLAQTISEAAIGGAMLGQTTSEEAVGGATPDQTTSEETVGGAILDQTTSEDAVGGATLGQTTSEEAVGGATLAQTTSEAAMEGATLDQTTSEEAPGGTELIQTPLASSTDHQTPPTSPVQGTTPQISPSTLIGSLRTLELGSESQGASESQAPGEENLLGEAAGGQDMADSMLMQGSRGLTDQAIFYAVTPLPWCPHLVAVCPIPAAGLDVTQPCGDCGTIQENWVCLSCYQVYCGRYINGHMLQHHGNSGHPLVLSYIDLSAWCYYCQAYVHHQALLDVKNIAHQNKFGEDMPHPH
- test-summary: HDAC6 enzyme activity inhibition assay (HDAC Fluorimetric Drug Discovery Kit)
- test-settings: same protocol as the HDAC1 enzyme activity test
Below, each of the compounds is paired with its reported IC50 value.
// units = nM; emit number, no label

# annotated cases, reported IC50 shown
Please look at this compound and report its IC50: CC(C)c1nc2ccc(N(Cc3ccc(-c4nnc(C(F)F)o4)cc3)S(C)(=O)=O)cc2s1 [Compound 11744]
531

// fetch IC50 given entry Cc1cccc(N(Cc2ccc(-c3nnc(C(F)F)o3)cn2)S(C)(=O)=O)c1 [Compound 11355]
16

Tell me measured IC50 for CS(=O)(=O)N(Cc1ccc(-c2nnc(C(F)(F)F)o2)cc1F)c1cccc(F)c1 [Compound 11181] please.
33

Note IC50 for the compound shown: Cc1noc(C2CCN(CCS(=O)(=O)N(Cc3ccc(-c4nnc(C(F)F)o4)cc3)c3ccccc3)CC2)n1 [Compound 11764]
137

Continue with the next compound.
Tell me measured IC50 for O=S(=O)(CCN1CCC[C@H]1CO)N(Cc1ccc(-c2nnc(C(F)F)o2)cc1)c1ccccc1 [Compound 11802] please.
35.1

###

- assayed-target: human recombinant HDAC6 (Homo sapiens)
- test-summary: HDAC6 enzyme activity inhibition assay (HDAC Fluorimetric Drug Discovery Kit)
- test-settings: same protocol as the HDAC1 enzyme activity test
Met if IC50 is below 80 nM. Not met if not; exact matches included in Not met.

Example results:
Does the reported IC50 of the following compound sit strictly below 80 nM? "O=S(=O)(C1CCN([C@H]2CC[C@@H](F)CC2)CC1)N(Cc1ccc(-c2nnc(C(F)F)o2)cc1)c1cccc(Cl)c1"
Not met

Lab log: compare recorded IC50 with 80 nM; is it strictly lower for "CCS(=O)(=O)N(Cc1ccc(-c2nnc(C(F)F)o2)cn1)c1cccc(CN2CCN(C(C)=O)CC2)c1" ?
Met

Please indicate whether the reported IC50 of "CS(=O)(=O)N1CC(N2CCC(S(=O)(=O)N(Cc3ccc(-c4nnc(C(F)F)o4)cc3F)c3ccc(F)c(Cl)c3)CC2)C1" is strictly below 80 nM.
Met

Next:
Dear reviewer, please state whether "NC(=O)[C@H]1CCCN1CCS(=O)(=O)N(Cc1ccc(-c2nnc(C(F)F)o2)cc1)c1ccccc1" has IC50 strictly beneath 80 nM.
Met

Is the reported IC50 for "CS(=O)(=O)N(Cc1ccc(-c2nnc(C(F)(F)F)o2)cn1)c1ccccc1" strictly below 80 nM?
Met

Answer whether the compound "Cc1cccc(N(Cc2ccc(-c3nnc(C(F)F)o3)cc2)S(=O)(=O)C2CCN([C@H]3CC[C@@H](F)CC3)CC2)c1" has IC50 strictly less than 80 nM
Not met

A record lists "COc1cccc(N(Cc2ccc(-c3nnc(C(F)F)o3)cc2F)S(C)(=O)=O)c1" . Is its IC50 below 80 nM?
Met

###

- assayed-target: human recombinant HDAC6 (Homo sapiens, UniProt Q9UBN7)
- Construct: purchased Calbiochem 382180
- test-summary: HDAC6 enzyme activity inhibition assay (HDAC Fluorimetric Drug Discovery Kit)
- Format: biochemical
- test-settings: HDAC1 vs HDAC6
Reported values of HDAC6 selectivity (fold) for individual entries
Enter your answer as a number in fold; do not include the unit.

Solved entries (count: 5):
Answer with reported HDAC6 selectivity (fold) of "CS(=O)(=O)N(Cc1ncc(-c2nnc(C(F)F)o2)cn1)c1ccccc1"
4762

Consider the compound "CS(=O)(=O)N1CC(N2CCC(S(=O)(=O)N(Cc3ccc(-c4nnc(C(F)F)o4)cn3)c3ccc(F)c(Cl)c3)CC2)C1" . State its measured HDAC6 selectivity (fold).
4792

Determine its reported HDAC6 selectivity (fold): "O=S(=O)(CCN1CCN(CCCO)CC1)N(Cc1ccc(-c2nnc(C(F)F)o2)cc1)c1ccccc1"
2666

Consider the compound "CS(=O)(=O)N(Cc1cnc(-c2nnc(C(F)(F)F)o2)nc1)c1ccccc1" and give its recorded HDAC6 selectivity (fold).
66

Item "CS(=O)(=O)N1CC(N2CCN(CCS(=O)(=O)N(Cc3ccc(-c4nnc(C(F)F)o4)cc3F)c3ccc(F)c(Cl)c3)CC2)C1" : provide HDAC6 selectivity (fold)
4348

Continuing:
Supply reported HDAC6 selectivity (fold) belonging to this compound: "CS(=O)(=O)N(Cc1ccc(-c2nnc(C(F)(F)F)o2)nn1)c1ccccc1"
7

Supply recorded HDAC6 selectivity (fold) for "COc1cc(-c2nnc(C(F)(F)F)o2)ccc1CN(c1cccnc1)S(C)(=O)=O" here.
48
